# assay.details: in vivo
# measurement.setup: CD1 nude, mouse, 0.5 nmol/mouse, total radioactivity, Muscle uptake
metric: tissue uptake at 4 h (%ID/g)
Numbers only, in %ID/g.

Fill in the blank: the reported tissue uptake at 4 h of Cc1ccc(CCCC(=O)NCCOCCOCCOCCOCCC(=O)NCCCC[C@H](NC(=O)CN2CCN(CC(=O)O)CCN(CC(=O)O)CCN(CC(=O)O)CC2)C(=O)N[C@@H](CC(=O)O)C(=O)N[C@@H](CC2CCCCC2)C(=O)N[C@@H](Cc2ccccc2)C(=O)N[C@H](CO)C(=O)N[C@H](CCCNC(=N)N)C(=O)N[C@@H](Cc2ccc(O)cc2)C(=O)N[C@@H](CC(C)C)C(=O)N[C@@H](Cc2c[nH]c3ccccc23)C(=O)N[C@@H](CO)C(N)=O)cc1 [[^177Lu]Lu-uPAR-11, metal not drawn] is ____.
0.63
